B1: Intersectin-1, residues 1156 to 1213; numbered along this chain, Q15811 (parent)
chain: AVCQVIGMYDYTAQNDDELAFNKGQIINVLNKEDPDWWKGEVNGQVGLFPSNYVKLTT

Variants of: B1
measurement-description: abundance fitness (aPCA) (normalised: wild type 0, dead -1); higher = more abundant; growth selection in yeast, the domain comes from the species named
test-parameters: Homo sapiens
reported-property: abundance fitness
# respond with the number and nothing more

Input line: Given AVCQVIGMYDYTAQNDDELAFNKGQIINVTNKEDPDWWKGEVNGQVGLFPSNYVKLTT [L30T] , state its recorded abundance fitness.
Output line: -0.476

Input line: Quick one: AVCQVIGMYDYTAQNDDELAFNKGQIINVLNKEDPDWWKFEVNGQVGLFPSNYVKLTT [G40F]
Output line: -0.953

Origin of values: the Human Domainome abundance scans (Beltran et al. 2025)
